Each entry below lists one item and its recorded kon value.
system_under_test: T1, Extracellular domain of cyno PD1 (cPD1-ECD) (Macaca fascicularis (cynomolgus))
T1 construct: Expressed with a hexahistidine tag or as Fc fusion; also called cynoPD1-ECD; cynoPD-1-ECD
T1 chain: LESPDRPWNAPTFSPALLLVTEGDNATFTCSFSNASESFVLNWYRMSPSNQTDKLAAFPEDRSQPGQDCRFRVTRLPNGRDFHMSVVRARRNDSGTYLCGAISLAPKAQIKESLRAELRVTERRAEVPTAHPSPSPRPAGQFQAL
experiment_description: SPR ProteOn, captured mAb, cynoPD1-ECD analyte;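 further: ProteOn XPR36 SPR with antibodies held by anti-IgG Fc on a GLC chip, kinetic constants obtained by fitting to a Langmuir 1:1 binding model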
The reply should be a number in M⁻¹ s⁻¹, with the unit left off.

Please review the entries below; each comes with its answer.
PD1B198 (antibody, V domains shown, also called PD1H163/PD1L187) VH: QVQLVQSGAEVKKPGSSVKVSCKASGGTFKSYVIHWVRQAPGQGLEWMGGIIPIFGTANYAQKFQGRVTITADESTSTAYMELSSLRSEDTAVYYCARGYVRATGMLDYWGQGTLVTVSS VL: EIVLTQSPATLSLSPGERATLSCRASQSVSSYLAWYQQKPGQAPRLLIEDASSRATGIPARFSGSGSGTDFTLTISSLEPEDFAVYYCQQRAEWPLTFGQGTKVEIK; 372000
PD1B195 (antibody, V domains shown, also called PD1H170/PD1L67) VH: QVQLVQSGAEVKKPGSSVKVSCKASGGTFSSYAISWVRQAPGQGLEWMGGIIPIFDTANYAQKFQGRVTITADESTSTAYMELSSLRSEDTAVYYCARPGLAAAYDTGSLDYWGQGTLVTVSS VL: EIVLTQSPATLSLSPGERATLSCRASQSVDSYLAWYQQKPGQAPRLLIYDASNRATGIPARFSGSGSGTDFTLTISSLEPEDFAVYYCQQREYWPLTFGQGTKVEIK; 432000

input: Which kon value belongs to PD1B200 (antibody, V domains shown, also called PD1H164/PD1L168) VH: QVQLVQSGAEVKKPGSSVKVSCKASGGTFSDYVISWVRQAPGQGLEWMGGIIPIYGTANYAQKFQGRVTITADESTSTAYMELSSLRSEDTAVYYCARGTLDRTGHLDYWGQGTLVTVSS VL: EIVLTQSPATLSLSPGERATLSCRASQSVDNYLAWYQQKPGQAPRLLIHDASNRATGIPARFSGSGSGTDFTLTISSLEPEDFAVYYCQQRSAWPLTFGQGTKVEIK ?
output: 380000
